- ASSAY_SYSTEM: WNK1 (Homo sapiens)
- Sequence (Q9H4A3 whole entry): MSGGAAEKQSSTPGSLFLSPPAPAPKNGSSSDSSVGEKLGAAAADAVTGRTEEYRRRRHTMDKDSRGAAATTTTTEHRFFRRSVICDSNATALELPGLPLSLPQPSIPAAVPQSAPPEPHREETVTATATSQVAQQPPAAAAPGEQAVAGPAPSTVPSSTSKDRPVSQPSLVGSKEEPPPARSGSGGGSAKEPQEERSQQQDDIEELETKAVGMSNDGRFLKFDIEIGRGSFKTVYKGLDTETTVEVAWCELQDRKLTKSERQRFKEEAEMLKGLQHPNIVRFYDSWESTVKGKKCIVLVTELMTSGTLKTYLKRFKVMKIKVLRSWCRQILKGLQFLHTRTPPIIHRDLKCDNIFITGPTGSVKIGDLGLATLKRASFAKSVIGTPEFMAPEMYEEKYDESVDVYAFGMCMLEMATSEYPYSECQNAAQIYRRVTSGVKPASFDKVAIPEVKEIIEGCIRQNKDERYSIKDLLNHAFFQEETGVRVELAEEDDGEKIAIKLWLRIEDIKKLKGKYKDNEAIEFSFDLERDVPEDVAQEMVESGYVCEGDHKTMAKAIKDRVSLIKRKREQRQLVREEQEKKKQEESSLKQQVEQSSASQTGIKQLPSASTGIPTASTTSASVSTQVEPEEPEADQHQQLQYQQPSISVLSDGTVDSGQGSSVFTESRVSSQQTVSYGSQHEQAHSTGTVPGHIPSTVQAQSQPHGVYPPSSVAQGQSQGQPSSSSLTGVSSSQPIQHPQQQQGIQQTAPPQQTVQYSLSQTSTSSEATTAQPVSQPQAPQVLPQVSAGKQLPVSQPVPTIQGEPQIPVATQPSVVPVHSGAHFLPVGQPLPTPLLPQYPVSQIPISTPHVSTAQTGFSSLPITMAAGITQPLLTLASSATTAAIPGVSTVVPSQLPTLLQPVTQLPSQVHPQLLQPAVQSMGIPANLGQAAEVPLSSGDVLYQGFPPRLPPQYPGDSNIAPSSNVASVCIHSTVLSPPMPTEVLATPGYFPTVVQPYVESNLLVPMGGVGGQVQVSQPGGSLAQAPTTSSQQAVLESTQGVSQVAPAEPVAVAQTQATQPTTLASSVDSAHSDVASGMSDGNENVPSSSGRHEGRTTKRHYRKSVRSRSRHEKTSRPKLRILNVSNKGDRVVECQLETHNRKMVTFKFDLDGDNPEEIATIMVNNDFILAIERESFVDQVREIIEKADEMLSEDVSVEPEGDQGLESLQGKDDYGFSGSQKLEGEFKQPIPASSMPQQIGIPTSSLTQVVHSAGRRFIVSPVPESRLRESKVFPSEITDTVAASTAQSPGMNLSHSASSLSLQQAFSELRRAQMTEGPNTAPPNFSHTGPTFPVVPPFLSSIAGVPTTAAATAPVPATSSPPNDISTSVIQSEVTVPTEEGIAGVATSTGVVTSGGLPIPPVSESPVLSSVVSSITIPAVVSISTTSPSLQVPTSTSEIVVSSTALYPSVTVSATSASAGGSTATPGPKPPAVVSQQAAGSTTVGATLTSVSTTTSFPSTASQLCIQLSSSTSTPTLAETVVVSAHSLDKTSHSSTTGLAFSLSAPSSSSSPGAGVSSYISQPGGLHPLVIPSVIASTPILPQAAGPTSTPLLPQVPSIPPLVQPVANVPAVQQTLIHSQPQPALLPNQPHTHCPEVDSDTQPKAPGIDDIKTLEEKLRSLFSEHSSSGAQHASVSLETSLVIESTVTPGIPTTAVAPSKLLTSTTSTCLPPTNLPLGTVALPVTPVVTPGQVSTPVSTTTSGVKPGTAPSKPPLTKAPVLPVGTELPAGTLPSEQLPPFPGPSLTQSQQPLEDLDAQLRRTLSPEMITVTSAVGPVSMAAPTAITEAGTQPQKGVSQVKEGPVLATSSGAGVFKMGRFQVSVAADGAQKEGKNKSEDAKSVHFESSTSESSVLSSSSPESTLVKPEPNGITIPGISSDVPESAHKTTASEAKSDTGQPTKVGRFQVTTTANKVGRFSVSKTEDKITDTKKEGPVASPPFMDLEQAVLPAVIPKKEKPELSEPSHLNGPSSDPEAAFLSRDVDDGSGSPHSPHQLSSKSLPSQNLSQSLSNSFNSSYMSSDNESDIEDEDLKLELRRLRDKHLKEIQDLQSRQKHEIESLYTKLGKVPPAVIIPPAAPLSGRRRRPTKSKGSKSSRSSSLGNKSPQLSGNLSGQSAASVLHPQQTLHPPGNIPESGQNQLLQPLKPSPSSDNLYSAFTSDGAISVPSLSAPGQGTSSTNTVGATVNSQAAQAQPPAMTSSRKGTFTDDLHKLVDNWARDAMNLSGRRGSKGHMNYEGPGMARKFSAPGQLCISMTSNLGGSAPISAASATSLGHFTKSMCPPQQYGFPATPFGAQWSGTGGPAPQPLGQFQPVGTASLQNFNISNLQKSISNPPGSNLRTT
ATTRIBUTE_MEASURED: Kd

Reported WNK1 (Homo sapiens) Kd for item COc1cnc(Nc2cccc(S(N)(=O)=O)c2)nc1N1CCN(c2ccccc2)C(=O)C1 [CDD-1653] was > 3 µM

* * *

- ASSAY_SYSTEM: TGFBR2 (Homo sapiens, UniProt P37173)
- Sequence (P37173 23-567): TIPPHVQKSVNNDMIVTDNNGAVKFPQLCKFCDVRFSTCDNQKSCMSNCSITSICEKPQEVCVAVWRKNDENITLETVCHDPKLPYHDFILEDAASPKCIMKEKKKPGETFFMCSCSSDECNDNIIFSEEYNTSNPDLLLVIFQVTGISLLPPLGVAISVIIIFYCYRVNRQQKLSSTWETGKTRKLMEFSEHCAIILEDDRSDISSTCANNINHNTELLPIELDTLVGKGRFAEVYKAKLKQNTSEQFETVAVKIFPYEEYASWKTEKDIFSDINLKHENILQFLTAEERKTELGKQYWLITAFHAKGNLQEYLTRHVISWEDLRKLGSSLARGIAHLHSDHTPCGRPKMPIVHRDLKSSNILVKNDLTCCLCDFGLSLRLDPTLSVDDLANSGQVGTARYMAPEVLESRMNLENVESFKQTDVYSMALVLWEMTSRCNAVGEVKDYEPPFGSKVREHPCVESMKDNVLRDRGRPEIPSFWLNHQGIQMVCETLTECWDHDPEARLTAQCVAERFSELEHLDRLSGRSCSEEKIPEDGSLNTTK
- EXPERIMENTAL_PROTOCOL: ThermoFisher SelectScreen LanthaScreen assay
- Type: binding
pIC50: −log10 of the molar value.
ATTRIBUTE_MEASURED: pIC50

Given the molecule CNC(=O)[C@@H]1CC[C@@H](n2c(-c3ccc4cnccc4c3)nc3ccc(C(=O)NCc4cccc(C(N)=O)c4)cc32)C1 [CDD-1115] and test system TGFBR2 (Homo sapiens, UniProt P37173), the measured pIC50 is < 6.00

meta.source: paper PMC9924264
